B1: Retinoic acid receptor RXR-alpha, residues 132 to 208; numbered along this chain, P19793 (parent)
chain: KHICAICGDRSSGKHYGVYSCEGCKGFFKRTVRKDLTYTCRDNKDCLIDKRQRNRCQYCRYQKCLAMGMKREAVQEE

variants of: B1; test: abundance fitness (aPCA) (normalised: wild type 0, dead -1); higher = more abundant; growth selection in yeast, the domain comes from the species named; conditions: Homo sapiens
property name: abundance fitness

{"columns": ["sequence change", "experimental result"],
 "data": [
  ["K14L", -0.094],
  ["Y38R", -0.11],
  ["F28L", -0.316],
  ["G13C", -0.707],
  ["C4S", -1.03],
  ["D45T", -0.051],
  ["T37E", 0.052],
  ["G13D", 0.019],
  ["D49L", -0.102],
  ["T31A", -0.03],
  ["G17S", -0.029],
  ["L36A", 0.031],
  ["H2P", -0.453],
  ["I48F", -0.108],
  ["C24V", -0.917],
  ["Y16L", -0.035],
  ["G8R", -0.125],
  ["I3D", -0.059],
  ["V18G", 0.013],
  ["C7F", -1.19],
  ["L47V", -0.008],
  ["R10N", -0.024],
  ["K1C", -0.185],
  ["K29V", 0.054],
  ["K44D", 0.092],
  ["K14A", -0.027],
  ["G17R", -0.095],
  ["F28A", -0.49],
  ["K14G", -0.004],
  ["K29D", -0.013],
  ["G8P", -0.227],
  ["C40A", -0.602],
  ["D45C", -0.049],
  ["F27S", 0.004],
  ["K29N", 0.027],
  ["D9E", 0.098],
  ["L36Q", 0.005],
  ["I3W", -0.404],
  ["H15S", -0.196],
  ["R33I", 0.004],
  ["R33T", -0.012],
  ["Y16T", -0.04],
  ["Y38C", -0.353],
  ["K1A", -0.531],
  ["D49R", -0.183],
  ["N43Q", -0.099]
]}
